- Study system: T1, Zur (ScZur) wild type (Streptomyces coelicolor, UniProt Q9L2H5 1-139)
- T1 sequence: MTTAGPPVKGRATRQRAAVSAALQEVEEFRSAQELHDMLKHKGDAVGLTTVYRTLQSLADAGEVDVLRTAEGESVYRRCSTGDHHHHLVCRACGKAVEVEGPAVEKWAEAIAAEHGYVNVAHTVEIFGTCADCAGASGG
- Assay protocol: ITC; 4.0 eq Zn2+ per Zur dimer; N=3.1 dimers per DNA; K=1.8e6 M-1; ITC: 20 mM HEPES pH 7.8, 150 mM NaCl, 0.5 mM TCEP, 25 C. EMSA: 20 mM Tris-HCl pH 7.8, 150 mM NaCl, 5 mM DTT, 0.1 mg/ml BSA, 5% glycerol, 0.1 ug poly(dI-dC) per
- Study conditions: protein: recombinant; chain copies: 2; label: 6-FAM in EMSA; blunt
Metric name: Kd

input: For zitB 33 bp (dsDNA) DNA 1: CAAGGCACATGACAACGGTGTTCAGTGCCGCGT DNA 2: ACGCGGCACTGAACACCGTTGTCATGTGCCTTG , write its Kd.
output: 600 nM

src = paper PMC11077047
